From: patent US20230414702A1

As shown below, each of these binders has a reported Kd value.
Biological target: T1, CD47 receptor (UniProt Q08722 19-323, limits assumed)
T1 construct: whole, on cells; The assays used a whole MEC-1 cell membrane preparation, not purified CD47; also called membrane preparation from MEC-1 cells
T1 sequence (Q08722 19-323 limits assumed): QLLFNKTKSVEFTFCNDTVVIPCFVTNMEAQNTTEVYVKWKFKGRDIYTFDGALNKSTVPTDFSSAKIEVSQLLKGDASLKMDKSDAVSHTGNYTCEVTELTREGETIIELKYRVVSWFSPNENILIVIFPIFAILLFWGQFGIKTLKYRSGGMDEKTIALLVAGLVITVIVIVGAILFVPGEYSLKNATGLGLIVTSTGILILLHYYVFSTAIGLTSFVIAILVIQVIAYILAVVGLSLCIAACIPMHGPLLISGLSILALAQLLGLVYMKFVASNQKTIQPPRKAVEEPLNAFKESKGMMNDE
Experiment: binding to MEC-1 membrane preparation; method not named in Table 3
Non-standard residues stand in square brackets, D forms with d. No end group written: not given here. Nle = CCCC[C@H](N)C(=O)O
Kindly provide the numeric value in µM only, without the unit symbol.

Check out these entries, answers already filled in.
>>> measurement("H-[dK]RFYVVMWA[dK]-OH (SMILES CSCC[C@H](NC(=O)[C@@H](NC(=O)[C@@H](NC(=O)[C@H](Cc1ccc(O)cc1)NC(=O)[C@H](Cc1ccccc1)NC(=O)[C@H](CCCNC(=N)N)NC(=O)[C@H](N)CCCCN)C(C)C)C(C)C)C(=O)N[C@@H](Cc1c[nH]c2ccccc12)C(=O)N[C@@H](C)C(=O)N[C@H](CCCCN)C(=O)O, Ala-scan analogue of PKHB1) [K9/A, kRFYVVMW(A)k]")
27
>>> measurement("H-[dK]AFYVVMWK[dK]-OH (SMILES CSCC[C@H](NC(=O)[C@@H](NC(=O)[C@@H](NC(=O)[C@H](Cc1ccc(O)cc1)NC(=O)[C@H](Cc1ccccc1)NC(=O)[C@H](C)NC(=O)[C@H](N)CCCCN)C(C)C)C(C)C)C(=O)N[C@@H](Cc1c[nH]c2ccccc12)C(=O)N[C@@H](CCCCN)C(=O)N[C@H](CCCCN)C(=O)O, Ala-scan analogue of PKHB1) [R2/A, k(A)FYVVMWKk]")
6.2
>>> measurement("[dK]RFYVVAWK[dK] (Ala-scan analogue of PKHB1) [M7/A, kRFYVV(A)WKk]")
42

Turning now to a further binder:
Return reported Kd; argument: H-[dK]RFYVV[Nle]WK[dK]-OH (SMILES CCCC[C@H](NC(=O)[C@@H](NC(=O)[C@@H](NC(=O)[C@H](Cc1ccc(O)cc1)NC(=O)[C@H](Cc1ccccc1)NC(=O)[C@H](CCCNC(=N)N)NC(=O)[C@H](N)CCCCN)C(C)C)C(C)C)C(=O)N[C@@H](Cc1c[nH]c2ccccc12)C(=O)N[C@@H](CCCCN)C(=O)N[C@H](CCCCN)C(=O)O) [M/Nle, kRFYVV(Nle)WKk]
18
